# assay-method-text: HFF toxicity assay (WST-1)
# Type: cell-based
# condition: human, HFF cells (confluent monolayer)
observable: CC50 at 72 h

* Cc1[nH]c2ccccc2c(=O)c1-c1ccc(Oc2ccc(OC(F)(F)F)cc2)cc1 [ELQ 271] | 20 µM

---

# assay-method-text: FaSSIF solubility pH 6.5
observable: solubility (µM)

* Cc1[nH]c2ccccc2c(=O)c1-c1ccc(Oc2ccc(OC(F)(F)F)cc2)cc1 | 3.4

---

# assay-method-text: Mouse microsomal stability
# condition: mouse, mouse microsomes
observable: half-life

* Cc1[nH]c2ccccc2c(=O)c1-c1ccc(Oc2ccc(OC(F)(F)F)cc2)cc1 | > 3.33 h
